# measurement-notes: Determination of bio-accumulation: urinary clearance pharmacokinetic study in rats
# applied-conditions: male Sprague Dawley rats, 73 micro Moles per kg oral gavage, urine by fluorine NMR, exponential least squares curve fitting
measurement-kind: T ½ (h) (renal half-life)
Form entry: value (h) — number only.

Worked examples follow.
{"compound": "N.O=C(O)C(F)(F)C(F)OC(F)(F)C(F)(F)C(F)(F)F (centres unmarked) [Compound 3, C3F7—O—CFH—CF2COONH4]", "T ½ (h) (renal half-life)": 11}
{"compound": "N.O=C(O)C(F)(F)C(F)(F)C(F)(F)C(F)(F)C(F)(F)OC(F)C(F)(F)F (centres unmarked) [Compound 4, CF3—CFH—O—(CF2)5—COONH4]", "T ½ (h) (renal half-life)": 24}
{"compound": "N.O=C(O)C(F)OC(F)(F)C(F)(F)C(F)(F)OC(F)(F)F (centres unmarked) [Compound 2, CF3—O—CF2—CF2—CF2—O—CHF—COONH4]", "T ½ (h) (renal half-life)": 11}

Sample N.O=C(O)C(F)(F)OC(F)(F)C(F)(F)C(F)(F)OC(F)(F)F [Compound C-2, CF3—O—(CF2)3—O—CF2—COONH4, reference compound] — what was its T ½ (h) (renal half-life)?
10

Look at this compound and give its reported T ½ (h) (renal half-life). N.O=C(O)C(F)(F)C(F)OC(F)(F)C(F)(F)C(F)(F)OC(F)(F)F (centres unmarked) [Compound 1, CF3—O—CF2—CF2—CF2—O—CHF—CF2—COONH4]
12

// query T ½ (h) (renal half-life) value for entry N.O=C(O)C(F)(F)C(F)(F)C(F)(F)OC(F)C(F)(F)F (centres unmarked) [Compound 5, CF3—CFH—O—(CF2)3—COONH4]
8

Using the record for N.O=C(O)C(F)(F)C(F)(F)OC(F)(F)C(F)(F)C(F)(F)C(F)(F)F [Compound C-3, C4F9—O—CF2—CF2—COONH4, reference compound] , report its T ½ (h) (renal half-life).
31

Origin of values: patent US8119750B2
